Recorded pIC50 values for a group of compounds are listed next.
- tested on: human SCD5 (Homo sapiens, UniProt Q86SK9)
- Construct: expressed in transfected cells; host or cells: yeast strain with OLE1 deleted, plasmid-borne human SCD5 (selected in SD-Ura)
- Sequence (Q86SK9 whole entry): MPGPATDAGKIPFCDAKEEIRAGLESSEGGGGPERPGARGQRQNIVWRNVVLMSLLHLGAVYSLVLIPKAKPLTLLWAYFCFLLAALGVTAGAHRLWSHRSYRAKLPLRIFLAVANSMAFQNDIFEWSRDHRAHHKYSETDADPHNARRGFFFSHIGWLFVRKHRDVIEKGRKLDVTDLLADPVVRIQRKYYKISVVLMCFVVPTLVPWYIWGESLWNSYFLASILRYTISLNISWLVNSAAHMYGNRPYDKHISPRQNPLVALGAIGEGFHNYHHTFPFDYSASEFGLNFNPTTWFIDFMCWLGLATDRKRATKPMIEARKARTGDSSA
- experiment: Growth inhibition of yeast strain expressing human SCD5 as sole desaturase (OLE1 deleted), OD600 readout
- Format: cell-based
- run conditions: yeast strain expressing human SCD5 as sole desaturase; growth (OD600) after 40 h at 30° C.; read-out: SCD5 IC50
In textbook form, pIC50 equals minus log to base ten of the concentration in mol/L.

Prompt line: // lookup pIC50 for COc1cc(C(=O)Nc2ccc(Cc3cc(F)cc(F)c3)cn2)nn(C)c1=O
Response line: 7.59

Prompt line: # query: pIC50 of entry Cn1nccc(NC(=O)c2ccc(Cc3cccc(F)c3)cn2)c1=O
Response line: 6.55

Prompt line: Entry under review: CN1N=C(C(=O)Nc2ccc(Cc3cccc(Br)c3)nn2)CCC1=O . Reported pIC50?
Response line: 5.57

Prompt line: // lookup pIC50 for CN1N=C(C(=O)Nc2ccc(OCc3cc(F)cc(C#N)c3)cn2)CCC1=O
Response line: 5.16

Prompt line: Entry CN1N=C(C(=O)Nc2ccc(COc3cccc(Cl)c3)nn2)CCC1=O has what pIC50?
Response line: 5.91

Prompt line: I would be grateful if you could share the reported pIC50 for N#Cc1cnc(C(=O)Nc2ccc(Cc3cccc(F)c3)cn2)nc1 .
Response line: 8.00

Prompt line: Given the compound CC(O)c1ccc(C(=O)Nc2ccc(Cc3ccc(F)c(Cl)c3)cn2)cn1 (centres unmarked) , what is its reported pIC50?
Response line: 7.22

Prompt line: Given the compound O=C(Nc1ccc(Cc2cccc(F)c2)cn1)c1ccc2nncn2c1 , what is its reported pIC50?
Response line: 7.10

New cases:
Prompt line: pIC50 lookup needed for CCn1cc(C(=O)Nc2ccc(Cc3cc(F)cc(OC)c3)cn2)ccc1=O , thanks.
Response line: 6.19

Prompt line: I'd like to know its pIC50. The compound in question is N#Cc1cc(F)cc(Cc2ccc(NC(=O)c3ccnc(Cl)n3)nc2)c1
Response line: 6.54

Prompt line: Entry Cn1ccc(C(=O)Nc2ccc(Cc3cc(F)cc(F)c3)cn2)nc1=O : reported pIC50 = ?
Response line: 6.33

Prompt line: GET /values?readout=pIC50&item= Cn1cccc(C(=O)Nc2ccc(Cc3cc(F)cc(F)c3)cn2)c1=O
Response line: 8.00

Prompt line: pIC50 lookup needed for Cc1nccc(C(=O)Nc2ccc(Cc3ccc(F)c(C#N)c3)cn2)n1 , thanks.
Response line: 8.00

Prompt line: Value lookup for pIC50; key = N#Cc1ncc(C(=O)Nc2ccc(Cc3cc(F)cc(F)c3)cn2)cc1Cl
Response line: 7.57

Prompt line: Given the compound O=C(Nc1ccc(Nc2cccc(Cl)c2)cn1)c1ccc(=O)n(C2CC2)n1 , what is its reported pIC50?
Response line: 6.01

Prompt line: Param item = CCn1nc(C(=O)Nc2ccc(Cc3cccc(F)c3)nn2)ccc1=O ; retrieve measured pIC50.
Response line: 5.24

Prompt line: What measured pIC50 goes with Cn1ccc(C(=O)Nc2ccc(Cc3cccc(F)c3)cn2)nc1=O ?
Response line: 6.16

Prompt line: Return reported pIC50; argument: O=C(Nc1ccc(Cc2cccc(Cl)c2)cn1)c1ccc2nccn2c1
Response line: 5.11

Prompt line: So what does the record say about pIC50 for CN1N=C(C(=O)Nc2ccc(Cc3cncc(Cl)c3)cn2)CCC1=O ?
Response line: 6.12

Prompt line: What value of pIC50 has been recorded for this entry: Cn1ccc(C(=O)Nc2ccc(Cc3cc(F)cc(C#N)c3)cn2)cc1=O
Response line: 6.70

Prompt line: Entry CN1N=C(C(=O)Nc2ccc(C=C3CCCCC3)cn2)CCC1=O : reported pIC50 = ?
Response line: 4.74
